I'd be grateful if you could share measured phosphorylation enrichment for these entries.
# Tested on: AncSZ
# test-protocol: phosphorylation enrichment, bacterial display (enrichment ratio); higher = better substrate or ligand; peptides without Tyr show the background
// response body must contain only the number

I would be grateful if you could share the reported phosphorylation enrichment for HRDSSYYWEIE [RAF1_Y340_Q335H] . 1.69

I would be grateful if you could share the reported phosphorylation enrichment for GQECKYPPTQD [METAP2_Y137_E136K] . 0.86

I would be grateful if you could share the reported phosphorylation enrichment for KNNDGYIDFAE [MCFD2_Y135_YF] . 0.921

I would be grateful if you could share the reported phosphorylation enrichment for TFMKKYPKVFL [CNBD1_Y70_Q69K] . 3.41

I would be grateful if you could share the reported phosphorylation enrichment for VCDSNYSASRW [LRP5_Y1552_D1551N] . 0.719

----------
# tested-on: Fes (UniProt P07332)
# Sequence (P07332 whole entry, looked up): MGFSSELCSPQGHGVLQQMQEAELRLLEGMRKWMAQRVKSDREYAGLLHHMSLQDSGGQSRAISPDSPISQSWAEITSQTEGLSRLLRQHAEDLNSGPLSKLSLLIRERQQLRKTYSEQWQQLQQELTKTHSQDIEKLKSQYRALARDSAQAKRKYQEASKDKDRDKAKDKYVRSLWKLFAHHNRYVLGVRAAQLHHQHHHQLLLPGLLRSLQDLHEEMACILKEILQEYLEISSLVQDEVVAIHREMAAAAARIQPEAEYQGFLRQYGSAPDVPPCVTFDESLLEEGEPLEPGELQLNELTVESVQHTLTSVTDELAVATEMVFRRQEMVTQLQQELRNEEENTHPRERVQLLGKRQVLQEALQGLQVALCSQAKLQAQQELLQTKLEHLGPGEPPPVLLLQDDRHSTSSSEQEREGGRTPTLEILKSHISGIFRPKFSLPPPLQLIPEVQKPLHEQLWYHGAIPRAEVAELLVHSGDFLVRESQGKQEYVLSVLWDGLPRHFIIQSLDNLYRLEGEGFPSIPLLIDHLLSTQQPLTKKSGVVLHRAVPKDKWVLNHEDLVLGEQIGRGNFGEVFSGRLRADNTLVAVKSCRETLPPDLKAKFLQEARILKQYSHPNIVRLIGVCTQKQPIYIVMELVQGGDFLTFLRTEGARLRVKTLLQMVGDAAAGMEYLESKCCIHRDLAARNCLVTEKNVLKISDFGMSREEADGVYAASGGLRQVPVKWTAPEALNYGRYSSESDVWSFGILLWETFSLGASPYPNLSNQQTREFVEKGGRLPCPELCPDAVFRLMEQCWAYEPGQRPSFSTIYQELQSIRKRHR
# test-protocol: phosphorylation enrichment, bacterial display (enrichment ratio); higher = better substrate or ligand; peptides without Tyr show the background
Rule: phosphorylation enrichment under 0.8 gives 0 (no), otherwise 1 (yes).

Reported phosphorylation enrichment reaches at least 0.8 for PSPMPCASCQM [FOXL2_Y215_Y215C] ? 0 (no)

Reported phosphorylation enrichment reaches at least 0.8 for KEGSAYGSQSV [NFKB2_Y868_D865G] ? 0 (no)

Reported phosphorylation enrichment reaches at least 0.8 for MKGEYYRYLAE [YWHAG_Y131_D129E] ? 1 (yes)

Reported phosphorylation enrichment reaches at least 0.8 for RLLRGYDQSAF [HLA-C_Y137_YF] ? 0 (no)

Reported phosphorylation enrichment reaches at least 0.8 for VLALWYFFLTN [ZDHHC23_Y127_H132N_YF] ? 1 (yes)

Reported phosphorylation enrichment reaches at least 0.8 for LSAPEYGPKLK [TBC1D14_Y46] ? 0 (no)

Reported phosphorylation enrichment reaches at least 0.8 for KHMADYPDCKY [SOX11_Y113_Y116C] ? 1 (yes)

----------
I'd be grateful if you could share measured SH2 binding enrichment for these entries.
# tested-on: c-Src SH2
# test-protocol: SH2 binding enrichment of the phosphorylated peptide, bacterial display (enrichment ratio); higher = better substrate or ligand; peptides without Tyr show the background
// response body must contain only the number

I would be grateful if you could share the reported SH2 binding enrichment for SSFSGYIMMPN [LEF1_Y114_YF] . 2.08

I would be grateful if you could share the reported SH2 binding enrichment for VSGIPYGQPKQ [NEU1_Y251] . 0.331

I would be grateful if you could share the reported SH2 binding enrichment for HIKHNYECLVY [XRCC5_Y416] . 5.15

I would be grateful if you could share the reported SH2 binding enrichment for RDWSLYFKIIE [KRT18_Y129_H128L] . 0.314

I would be grateful if you could share the reported SH2 binding enrichment for NPQKSYFICLF [WAS_Y83_R86C_YF] . 0.602

I would be grateful if you could share the reported SH2 binding enrichment for ETWHNYHKFDS [MATR3_Y243_S240W] . 2.09

I would be grateful if you could share the reported SH2 binding enrichment for LANNEYYFRVC . 0.42

I would be grateful if you could share the reported SH2 binding enrichment for QDDYSYPSRQM [LDLR_Y847_G844D] . 1.06

I would be grateful if you could share the reported SH2 binding enrichment for DSEIRYLSADS [TTF1_Y476] . 0.633

I would be grateful if you could share the reported SH2 binding enrichment for RSAGKYDVFLI [MECP2_Y120_YF] . 0.914

I would be grateful if you could share the reported SH2 binding enrichment for VTQEPYELYCE [CBL_Y368_Q367P] . 0.695

I would be grateful if you could share the reported SH2 binding enrichment for PIFLFYLMDLS [ITGB2_Y131_D128Y_YF] . 0.567

I would be grateful if you could share the reported SH2 binding enrichment for LRVHSYKSMQP [DRC7_Y516] . 0.607

I would be grateful if you could share the reported SH2 binding enrichment for KVMANYMFKAG [MAML2_Y513_YF] . 0.651

I would be grateful if you could share the reported SH2 binding enrichment for VGSIEYLKREW [KCNMA1_Y885] . 0.473

I would be grateful if you could share the reported SH2 binding enrichment for MICSAYALGGL [CPS1_Y590_R587C] . 0.552

I would be grateful if you could share the reported SH2 binding enrichment for PGRRFYVVACD [RNASE3_Y134] . 0.849

I would be grateful if you could share the reported SH2 binding enrichment for ASLEAYCKHKY [RXRA_Y403] . 0.548

I would be grateful if you could share the reported SH2 binding enrichment for IQVDAYFSPIH [ADSL_Y432] . 0.604

I would be grateful if you could share the reported SH2 binding enrichment for PRDSGYSFETI [MAP1B_Y1921_S1917R_YF] . 1.5

I would be grateful if you could share the reported SH2 binding enrichment for GDDLSYGDVPP [IRS1_Y151_E147D] . 0.573

I would be grateful if you could share the reported SH2 binding enrichment for KWHREYNSKFV [RICTOR_Y835_YF] . 1.19

I would be grateful if you could share the reported SH2 binding enrichment for AGRSGYDNREI [BCL2_Y9_T7S] . 0.494

I would be grateful if you could share the reported SH2 binding enrichment for YGLPRYRWLTH [TSPAN12_Y143] . 0.404

I would be grateful if you could share the reported SH2 binding enrichment for RRNTFYASIAK [ACADM_Y353_YF] . 1.09

I would be grateful if you could share the reported SH2 binding enrichment for HRAVEYLLTGI [RAD23A_Y197] . 0.575

I would be grateful if you could share the reported SH2 binding enrichment for TSSAGYRAAEG [COL6A3_Y543] . 0.485

I would be grateful if you could share the reported SH2 binding enrichment for KSIEEYLKLVG [RASAL2_Y381] . 0.441

I would be grateful if you could share the reported SH2 binding enrichment for SVTCTYSRALN [TP53_Y126_P128R] . 0.46

I would be grateful if you could share the reported SH2 binding enrichment for KGSLPYSLILD [PKD1L2_Y406_N407S] . 10.5

I would be grateful if you could share the reported SH2 binding enrichment for WIGRKYKKVRF [F8_Y442_R437W] . 0.388

I would be grateful if you could share the reported SH2 binding enrichment for TRYDEYLEVTK [MAP1A_Y2217_H2214Y] . 1.02

I would be grateful if you could share the reported SH2 binding enrichment for EHVMPYAANKN [GRIN2A_Y1431] . 0.484

I would be grateful if you could share the reported SH2 binding enrichment for YSKDNYKRVTG [PANK2_Y405] . 0.374

I would be grateful if you could share the reported SH2 binding enrichment for MPAVTYTLAMR [MEGF10_Y895_P897L] . 0.726

I would be grateful if you could share the reported SH2 binding enrichment for LRSELYFLIAR [PHIP_Y16] . 1.05

I would be grateful if you could share the reported SH2 binding enrichment for LLQKTYNYNVL [SLC4A1_Y553_P548L] . 2.2

I would be grateful if you could share the reported SH2 binding enrichment for EKSREYHRLFE [PIK3R1_Y463_D464H_YF] . 4.61

I would be grateful if you could share the reported SH2 binding enrichment for YLEKYYKFGSR [NNMT_Y25] . 0.523

I would be grateful if you could share the reported SH2 binding enrichment for RGRSTYFWPRP [GAGE12J_Y9_YF] . 0.489

I would be grateful if you could share the reported SH2 binding enrichment for FEPWVYSFSYE [PRKDC_Y647] . 0.705

I would be grateful if you could share the reported SH2 binding enrichment for GSSKIYFLHAD [TLR5_Y108_P112A] . 0.833

I would be grateful if you could share the reported SH2 binding enrichment for MKGDFYRFLAE [YWHAG_Y131_YF] . 0.479

I would be grateful if you could share the reported SH2 binding enrichment for FAREGYSALPQ [SARS2_Y52_YF] . 0.583

I would be grateful if you could share the reported SH2 binding enrichment for RIGRKCKKVRF [F8_Y442_Y442C] . 0.433

I would be grateful if you could share the reported SH2 binding enrichment for LTELGYSFVTT [ACTA1_Y200_R198L] . 8.8

I would be grateful if you could share the reported SH2 binding enrichment for PADCRYYTFPQ [GAMT_Y222_A224T] . 2.15

I would be grateful if you could share the reported SH2 binding enrichment for PLDGESFTLQI [TP53_Y327_Y327S] . 0.422

I would be grateful if you could share the reported SH2 binding enrichment for NTQRPYYKGGG [TYROBP_Y111] . 0.736

I would be grateful if you could share the reported SH2 binding enrichment for ARDVIYIIIPA [FRKtide_2014] . 1.44

I would be grateful if you could share the reported SH2 binding enrichment for VLALWYFFLTN [ZDHHC23_Y127_H132N_YF] . 0.985

meta.source: the supplement of paper PMC10065799
